Biological target: 11-beta-hydroxysteroid dehydrogenase 1 (Mus musculus) (UniProt P50172)
Sequence (P50172 whole entry, looked up): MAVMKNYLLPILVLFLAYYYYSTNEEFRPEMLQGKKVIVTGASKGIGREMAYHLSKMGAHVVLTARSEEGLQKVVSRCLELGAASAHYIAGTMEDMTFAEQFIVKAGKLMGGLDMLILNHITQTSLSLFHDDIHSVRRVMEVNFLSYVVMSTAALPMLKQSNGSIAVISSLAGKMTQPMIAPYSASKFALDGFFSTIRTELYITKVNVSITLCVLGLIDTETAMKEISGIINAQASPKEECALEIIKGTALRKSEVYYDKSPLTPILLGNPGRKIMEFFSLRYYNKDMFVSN
Assay: Inhibition of mouse 11beta-HSD1 expressed in HEK293 cell microsomes assessed as inhibition of [3H]cortisone conversion to [3H]cortisol at 1 uM by scintillation proximity assay
Settings: Microsome
measured attribute: inhibition (%)

C=C1[C@H]2C[C@H](OC(=O)Nc3nccs3)[C@H]3[C@]4(C)CCC[C@@](C)(C(=O)O)[C@H]4CC[C@]3(C2)[C@@H]1O 11.6
C=C1C[C@@]23CC[C@@H]4[C@](C)(CF)CCC[C@@]4(C)[C@@H]2CC[C@H]1C3 37.7
C=C1[C@H]2C[C@H](O)[C@H]3[C@]4(C)CCC[C@@](C)(NC(=O)Nc5ccc(F)cc5)[C@H]4CC[C@]3(C2)[C@@H]1O 7.92
C=C1[C@H]2C[C@H](O)[C@H]3[C@]4(C)CCC[C@@](C)(NC(=O)N5CCOCC5)[C@H]4CC[C@]3(C2)[C@@H]1O 21.4
C=C1C[C@@]23CC[C@H]4[C@@](C)(CCC[C@@]4(C)NC(=O)Nc4nccs4)[C@@H]2CC[C@H]1C3 18.2
C=C1[C@H]2C[C@H](O)[C@H]3[C@]4(C)CCC[C@@](C)(C(=O)OC)[C@H]4CC[C@]3(C2)[C@@H]1O 25.1
C=C1[C@H]2CC[C@H]3[C@]4(C)CCC[C@@](C)(C(=O)O)[C@H]4CC[C@]3(C2)[C@@H]1F 56
C[C@@]12CCC[C@@](C)(C(=O)O)[C@H]1CC[C@]13CC(=O)[C@@H](CC[C@H]12)C3 19.6

I. C[C@H]1[C@H]2C[C@H](O)[C@H]3[C@]4(C)CCC[C@@](C)(C(=O)O)[C@H]4CC[C@]3(C2)[C@@H]1O
II. C=C1[C@H]2C[C@H](OC(=O)c3ccc(N(C)C)cc3)[C@H]3[C@]4(C)CCC[C@@](C)(C(=O)O)[C@H]4CC[C@]3(C2)[C@@H]1O
Just tell me: smaller inhibition value, I or II ? I would appreciate it if you answered with the label of your choice.
I

P. C=C1[C@H]2C[C@H](O)[C@H]3[C@]4(C)CCC[C@@](C)(NC(=O)NC5CCCCC5)[C@H]4CC[C@]3(C2)[C@@H]1O
Q. CC1(C)[C@@H](O)CC[C@]2(C)[C@H]3C(=O)C=C4[C@@H]5C[C@@](C)(C(=O)O)CC[C@]5(C)CC[C@@]4(C)[C@]3(C)CC[C@@H]12
R. C=C1C[C@@]23CC[C@H]4[C@@](C)(CCC[C@@]4(C)N=C=O)[C@@H]2CC[C@H]1C3
Sort low-to-high on inhibition, please. Kindly provide the labels arranged according to the requested ordering.
P, R, Q
(P: 16.3%, R: 55.5%, Q: 96.7%)
